# Test system: KB
# method: Cytotoxicity against human KB cells by MTT assay
# Format: functional, cell-based
pIC50: −log10 of the molar value.
readout.label: pIC50

Examples with answers:
> print(dat)
                                   compound  measurement.target  readout.label   value
1  C=C(CCC=C(C)C)C(O)Cc1c(O)ccc2c1O[C@H](c1ccc(O)cc1)CC2=O (stereo not given in full)                  KB          pIC50  < 5.00
2  CC1(CCC(O)C(C)(C)O)CCc2c(ccc3c2O[C@H](c2ccc(O)cc2)CC3=O)O1 (stereo not given in full)                  KB          pIC50  < 5.00
3  CC(C)(O)/C=C/CC1(C)CCc2c(ccc3c2O[C@H](c2ccc(O)cc2)CC3=O)O1 (stereo not given in full)                  KB          pIC50  < 5.00
4  CC(C)=CCCC1(C)CCc2c(ccc3c2O[C@H](c2ccc(O)cc2)CC3=O)O1 (stereo not given in full)                  KB          pIC50    5.00

Exercise: // lookup pIC50 for CC(C)=CCCC1(C)Oc2ccc3c(c2CC1O)O[C@H](c1ccc(O)cc1)CC3=O (stereo not given in full)
Solution: < 5.00

---

# Test system: HeLa S3
# method: Cytotoxicity against human HeLaS3 cells by MTT assay
# Type: functional, cell-based
pIC50: −log10 of the molar value.
readout.label: pIC50

> print(dat)
                                   compound  readout.label   value
1  CC1(CCC2OC2(C)C)CCc2c(ccc3c2O[C@H](c2ccc(O)cc2)CC3=O)O1 (stereo partly drawn)          pIC50    5.08
2  CC(C)=CCC/C(C)=C/Cc1c(O)ccc2c1O[C@H](c1ccc(O)cc1)CC2=O          pIC50  < 5.00
3  CC(C)=CCCC(C)(O)C1Cc2c(ccc3c2O[C@H](c2ccc(O)cc2)CC3=O)O1 (stereo partly drawn)          pIC50  < 5.00
4  CC(C)=CCCC1(C)Oc2ccc3c(c2CC1O)O[C@H](c1ccc(O)cc1)CC3=O (stereo partly drawn)          pIC50  < 5.00
5  CC(C)=CCCC1(C)CCc2c(cc(O)c3c2O[C@H](c2ccc(O)cc2)CC3=O)O1 (stereo partly drawn)          pIC50    5.00
6  COc1cccc2c1C(=O)c1c(O)c3c(c(O)c1C2=O)C[C@@](O)(C(=O)CO)C[C@@H]3O[C@H]1C[C@H](N)[C@H](O)[C@H](C)O1 [DOXORUBICIN]          pIC50    7.52
7  CC1(CCC(O)C(C)(C)O)CCc2c(ccc3c2O[C@H](c2ccc(O)cc2)CC3=O)O1 (stereo partly drawn)          pIC50  < 5.00
8  COC(C)(C)/C=C/C/C(C)=C/Cc1c(O)ccc2c1O[C@H](c1ccc(O)cc1)CC2=O          pIC50  < 5.00

Exercise: // lookup pIC50 for C=C(C)C(O)CCC1(C)CCc2c(ccc3c2O[C@H](c2ccc(O)cc2)CC3=O)O1 (stereo partly drawn)
Solution: < 5.00

Exercise: Entry COC(C=C(C)C)C/C(C)=C/Cc1c(O)ccc2c1O[C@H](c1ccc(O)cc1)CC2=O (stereo partly drawn) please
Solution: < 5.00

Exercise: Entry CC(C)=CCCC1(C)CCc2c(ccc3c2O[C@H](c2ccc(O)cc2)CC3=O)O1 (stereo partly drawn) please
Solution: 5.09

Exercise: Entry C=C(CCC=C(C)C)C(O)Cc1c(O)ccc2c1O[C@H](c1ccc(O)cc1)CC2=O (stereo partly drawn) please
Solution: < 5.00

Exercise: Entry C=C(C)/C=C/CC1(C)CCc2c(ccc3c2O[C@H](c2ccc(O)cc2)CC3=O)O1 (stereo partly drawn) please
Solution: < 5.00

Exercise: Entry C/C(=C\Cc1c(O)ccc2c1O[C@H](c1ccc(O)cc1)CC2=O)C/C=C/C(C)(C)O please
Solution: < 5.00

Exercise: Entry CC1=CCC(O)C(C)(C)C1Cc1c(O)ccc2c1O[C@H](c1ccc(O)cc1)CC2=O (stereo partly drawn) please
Solution: < 5.00

Exercise: Entry CC(C)(O)/C=C/CC1(C)CCc2c(ccc3c2O[C@H](c2ccc(O)cc2)CC3=O)O1 (stereo partly drawn) please
Solution: 5.18

Exercise: Entry COC(C)(C)/C=C/CC1(C)CCc2c(ccc3c2O[C@H](c2ccc(O)cc2)CC3=O)O1 (stereo partly drawn) please
Solution: 5.07

Exercise: Entry C=C(C)C(O)CC/C(C)=C/Cc1c(O)ccc2c1O[C@H](c1ccc(O)cc1)CC2=O (stereo partly drawn) please
Solution: < 5.00
